Values were extracted from PubChem BioAssay AID1159580.

# procedure-details: chemical genetic growth profiling, strain panel (AID 1159580);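 note: tested at 20 µM; growth read once vehicle control cultures reached saturation at 30 °C; 1 = growth at the plate median or of vehicle wells; lower values mean less growth of the strain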
# experimental-setup: S. cerevisiae deletion strains, growth OD, locus YOR061W, strain CKA2
Hit rate of the full screen: of about 5,500 compounds, about 2,000 (36%) were called active. Inconclusive results (about 18%) are left out. Cut-off read from the data, not from the text of the source: active = normalized growth mostly below about 0.91 (no sharp cut-off); inconclusive = no clear call, values can overlap the other calls; inactive = mostly above about 0.92. This is one part of the list.
Your answer must be one of the following: label 1 = active, label 0 = inactive

// known answers, use as guide
Nc1c(Br)cc(Br)cc1CNC1CCC(O)CC1 (stereo not drawn)	label 0
O=C(O)P(=O)(O)O	label 0
CCOC(N)=O	label 0
C=CCN1CC[C@]23c4c5ccc(O)c4OC2C(=O)CC[C@@]3(O)[C@H]1C5 (stereo partly drawn)	label 0
COc1cc(N=Cc2cc(Cl)cc(Cl)c2OC(=O)c2cc(OC)c(OC)c(OC)c2)c(OC)cc1Cl	label 1
C[C@@H]1C[C@@H]([C@H](O)CC2CC(=O)NC(=O)C2)C(=O)[C@@H](C)C1	label 1
O=C(O)CNCP(=O)(O)O	label 0
CCCC1c2ccsc2CCN1C(=S)Nc1ccc(Cl)cc1Cl (stereo not drawn)	label 0

Attention now turns to another entry.
Incoming: # outcome recorded in this test, key = N#CC1=C(N)C(C#N)(C#N)C2(CCCCC2)C2CCCC=C12 (stereo not drawn)
Outgoing: label 0

###

# procedure-details: chemical genetic growth profiling, strain panel (AID 1159580);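 note: tested at 20 µM; growth read once vehicle control cultures reached saturation at 30 °C; 1 = growth at the plate median or of vehicle wells; lower values mean less growth of the strain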
# experimental-setup: S. cerevisiae deletion strains, growth OD, locus YDL101C, strain DUN1, active compounds read low
Out of some 5,500 compounds screened, about 2,000 (36%) were called active. About 18% were inconclusive and are not listed. Some of the results follow.
value-kind: normalized growth
Numbers only.

COc1cc2c(cc1O)CC1c3c(cc(O)c(OC)c3-2)CCN1C (configuration not stated)	0.996
CCn1cc(C(=O)O)c(=O)c2cc3c(cc21)OCO3	1.02
N/C(=N\OC(=O)c1ccno1)c1ccc(C(F)(F)F)cc1	1.02
CC1(C)CCC(C(C)(C)O)CC1	1
COc1cc2c3cc1Oc1cc(ccc1O)OC1c4c(cc(OC)c(O)c4Oc4ccc(cc4)CC3N(C)CC2)CCN1C (configuration not stated)	0.993

Batch request: normalized growth for each of the following compounds.
1. C[C@](N)(Cc1ccc(O)c(O)c1)C(=O)O
2. CCC(CCC(C)C1CCC2C3CC=C4C[C@@H](OC(C)=O)CC[C@]4(C)C3CC[C@]12C)C(C)C (some centres not stated)
3. Cc1cc(C(=O)O/N=C(/N)c2ccc(C(C)(C)C)cc2)no1
4. CN1CCc2cccc3c2C1Cc1ccc(O)c(O)c1-3 (configuration not stated)
5. CCn1cc(C(=O)O)c(=O)c2cnc(N3CCNCC3)nc21

Outgoing:
1. 0.987
2. 0.979
3. 0.993
4. 1.01
5. 0.994

Batch request: normalized growth for each of the following compounds.
1. CCOC(=O)c1c(C)n(-c2ccccc2)c2ccc(O)cc12
2. CN(C)/C=C/C(=O)c1ccc(C#Cc2ccccc2)cc1
3. CC(=O)O[C@H]1C[C@@H](OC(C)=O)C(C)(C)C2C[C@@H](OC(C)=O)[C@]3(C)C(CC[C@@]4(C)[C@H](c5ccoc5)C(=O)[C@H]5O[C@]543)[C@]21C (some centres not stated)
4. CCCNC(C)C(=O)Nc1ccccc1C (configuration not stated)
5. C/C(=N/OC(=O)c1ccc(Cl)cc1)c1ccc(F)cc1
6. COc1ccc2c(c1O)-c1c(OC)c(OC)cc3c1[C@H](C2)N(C)CC3
7. Cc1cc(C(=O)O/N=C(/N)c2ccc([N+](=O)[O-])o2)no1
8. CC[C@]12CCCN3CCc4c(n(c5ccccc45)C(=O)C1)[C@@H]32

Outgoing:
1: 0.995; 2: 0.982; 3: 1.02; 4: 1.02; 5: 0.952; 6: 1.02; 7: 0.964; 8: 0.977

Batch request: normalized growth for each of the following compounds.
1. C/C(=N/NC1=NCCN1)c1ccc(F)cc1
2. CC(=O)O[C@H]1CC[C@@]2(C)C(=CCC3C2CC[C@]2(C)C(=O)CCC32)C1 (some centres not stated)
3. COC(=O)c1ccc(S(=O)(=O)NCc2ccccc2)n1C
4. N/C(=N/OC(=O)c1ccc(Cl)cc1)c1ccc(F)cc1F

Outgoing:
0.979
0.981
1.02
0.94
